For each record, write down the corresponding half-life at 1 µM.
Assay: Liver microsomal stability, rat
Assay type: in vitro ADME
Settings: liver microsomes, pH 7.4, read-out: Liver microsomal stability, t1/2, Rat
Reply numerically in min, unit not repeated.

[Q] What does the data say about its half-life at 1 µM? Entry: CCS(=O)(=O)c1ccc([C@H](CCO)c2nc3c(Cl)c(N4CCC(F)(F)CC4)c(Cl)cc3[nH]2)cc1
[A] 8.6

[Q] What does the data say about its half-life at 1 µM? Entry: CCS(=O)(=O)c1ccc(Cc2nc3c(Cl)c(N4CCC(F)(F)CC4)c(Cl)cc3[nH]2)cc1
[A] 34.5

* * *

Experiment: in vivo
Settings: female, C57BL/6, mouse, Exposure in plasma
parameter: concentration at 3 h

[Q] What does the data say about its concentration at 3 h? Entry: CCS(=O)(=O)c1ccc([C@H](CCO)c2nc3c(Cl)c(N4CCC(F)(F)CC4)c(Cl)cc3[nH]2)cc1
[A] 8.8 ng/mL

* * *

Experiment: Dermal PK, BALB/c mouse
Assay type: in vivo
Conditions: male, BALB/c, mouse, in vivo
parameter: concentration at 6 h (ng/g)
Reply numerically in ng/g, unit not repeated.

[Q] What does the data say about its concentration at 6 h? Entry: CCS(=O)(=O)c1ccc([C@H](CCO)c2nc3c(Cl)c(N4CCC(F)(F)CC4)c(Cl)cc3[nH]2)cc1
[A] 4390

Cited source for all entries: paper PMC8080595
